Items are presented alongside their recorded 8OG:A repair function score.
B1: library; numbered along this chain (parent)
chain: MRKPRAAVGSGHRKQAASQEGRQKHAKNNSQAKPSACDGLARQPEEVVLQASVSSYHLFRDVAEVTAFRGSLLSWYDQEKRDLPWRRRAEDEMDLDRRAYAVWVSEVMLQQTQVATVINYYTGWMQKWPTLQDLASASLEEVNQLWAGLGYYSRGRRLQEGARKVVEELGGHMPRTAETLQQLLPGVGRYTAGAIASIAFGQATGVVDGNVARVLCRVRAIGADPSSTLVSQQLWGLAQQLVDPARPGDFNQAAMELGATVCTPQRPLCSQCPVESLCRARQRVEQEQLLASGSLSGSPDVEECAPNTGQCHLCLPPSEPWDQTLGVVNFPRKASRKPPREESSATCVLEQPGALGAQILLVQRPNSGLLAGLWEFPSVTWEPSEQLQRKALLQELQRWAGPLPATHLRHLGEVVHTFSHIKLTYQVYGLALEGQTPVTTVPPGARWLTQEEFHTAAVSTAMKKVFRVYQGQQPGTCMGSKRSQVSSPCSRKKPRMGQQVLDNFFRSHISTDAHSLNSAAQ

variants of: B1; assay: 8OG:A repair function score (normalized; synonymous = 0, nonsense = -1) (normalized log-likelihood score); higher = more repair activity (WT-like); conditions: with 8OG:A DNA repair reporter (GFP) in HEK-293 MUTYH KO cells;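 further: cells sorted at 72 h after reporter transfection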
measured_attribute: 8OG:A repair function score

>>> data_value("G222S")
-0.439
>>> data_value("S71L")
-0.00671
>>> data_value("E433H")
-0.0353
>>> data_value("W146C")
-0.255
>>> data_value("E302H")
-0.259
>>> data_value("P383T")
0.0211
>>> data_value("P267V")
-0.195
>>> data_value("V458E")
-0.975
>>> data_value("G186K")
-0.9
>>> data_value("E451Y")
0.131
>>> data_value("I118E")
-0.0341
>>> data_value("R467V")
-0.105
>>> data_value("T260D")
-0.355
>>> data_value("L237C")
-0.474
>>> data_value("T308E")
-0.0446
>>> data_value("R446K")
-0.277
>>> data_value("V104D")
-1.33
>>> data_value("T112A")
-1.03
>>> data_value("A196C")
-0.233
>>> data_value("E319Y")
-0.0495
>>> data_value("Q252T")
-0.856
>>> data_value("H508L")
-0.0429
>>> data_value("L58H")
0.00605
>>> data_value("L229D")
-0.158
>>> data_value("W447V")
-0.846
>>> data_value("P365A")
-0.0399
>>> data_value("L423M")
0.142
>>> data_value("E287F")
-0.0154
>>> data_value("W399H")
-0.291
>>> data_value("K333D")
-0.903
>>> data_value("A357K")
-0.152
>>> data_value("Q498S")
0.0168
>>> data_value("L109Q")
-0.022
>>> data_value("L290C")
-0.0194
>>> data_value("F200G")
-0.582
>>> data_value("N210M")
-0.923
>>> data_value("P339D")
-0.41
>>> data_value("Q472H")
-0.152
>>> data_value("L158V")
-0.372
>>> data_value("V117F")
-1.21
>>> data_value("E452A")
-0.387
>>> data_value("K463I")
-0.089
>>> data_value("S105Y")
-1.24
>>> data_value("A89S")
0.00694
>>> data_value("D224M")
-0.995
>>> data_value("T406G")
-0.00238
>>> data_value("E79D")
-0.145
>>> data_value("E375A")
-0.313
>>> data_value("R266C")
-0.085
>>> data_value("L145Q")
0.154
>>> data_value("L325C")
-0.0972
>>> data_value("R217S")
-1.03
>>> data_value("G123E")
-0.000943
>>> data_value("R213A")
-1.02
>>> data_value("A147E")
-0.144
>>> data_value("R279C")
-0.251
>>> data_value("G353A")
0.00991
>>> data_value("R69F")
-1.53
>>> data_value("L149T")
-0.81
>>> data_value("Q159V")
0.0456
>>> data_value("A345H")
-0.107
>>> data_value("V165Q")
-0.882
>>> data_value("P402L")
-0.318
>>> data_value("V165P")
-1.08
>>> data_value("E275F")
0.0124
>>> data_value("L349Q")
-1.83
>>> data_value("F376T")
-0.441
>>> data_value("Q202G")
-0.395
>>> data_value("L432A")
-0.541
>>> data_value("G188P")
-0.845
>>> data_value("G170L")
-0.232
>>> data_value("L95M")
0.0014
>>> data_value("R340Y")
-0.205
>>> data_value("Q271E")
-0.00693
>>> data_value("W447Y")
-0.455
>>> data_value("V362S")
-0.406
>>> data_value("T228G")
0.0678
>>> data_value("G353D")
0.0347
>>> data_value("S507M")
-0.0199
>>> data_value("P299T")
-0.0424
>>> data_value("G201W")
-0.353
>>> data_value("G171A")
-0.18
>>> data_value("R389F")
-0.357
>>> data_value("P225W")
-0.322
>>> data_value("Q182H")
0.0507
>>> data_value("W321I")
-0.25
>>> data_value("S507G")
-0.00119
>>> data_value("G479Q")
0.0264
>>> data_value("V207F")
-0.875
>>> data_value("A223N")
-0.465
>>> data_value("A520P")
0.0147
